// reported pKd per item
Molecular target: T1, Cdc42Δ7Q61L (human, UniProt P60953 1-184, Q61L)
T1 construct: Human Cdc42 with seven residues deleted from the C terminus and the mutation Q61L; cloned into pGEX-2T; Loaded with [3H]GTP for SPA and with GMPPNP for NMR; 15N- or 15N/13C-labelled in some NMR experiments; also called truncated Cdc42; Cdc42Δ7Q61L·[3H]GTP; source: E. coli BL21, purified (glutathione-agarose, thrombin cleavage, gel filtration)
T1 sequence (P60953 1-184 Q61L): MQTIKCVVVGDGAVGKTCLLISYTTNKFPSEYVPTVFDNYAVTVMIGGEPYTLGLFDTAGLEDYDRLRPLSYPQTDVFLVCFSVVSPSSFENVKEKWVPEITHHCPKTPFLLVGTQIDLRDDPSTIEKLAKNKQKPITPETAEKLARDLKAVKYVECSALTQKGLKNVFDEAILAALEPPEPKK
Assay: scintillation proximity assay; competition; free effector domain titrated into 30 nM Cdc42·[3H]GTP and 30 nM GST-ACK (in Fig. 7B GST-ACK or GST-WASP GBD) immobilised on a fluoromicrosphere; Kd from competition binding isotherms
Conditions: both partners purified
The meaning of pKd here: minus log10 of the concentration in molar units.

{"columns": ["binder", "val"],
 "data": [
  ["N-WASP G protein-binding domain (GBD) (residues 197–255) (domain or fragment, Xenopus tropicalis, UniProt Q6NX29 197-255, looked up, also called N-WASP GBD; N-WASP CRIB domain; source: E. coli BL21-CodonPlus-RIL, purified (glutathione-agarose, 3C protease cleavage, gel filtration); not shown: GST, N-terminal, cleaved) KKKLTKADIGTPSNFQHIGHVGWDPNTGFDVNNLDPELKKLFDLCGISEAQLKDKETSK", 7.43]
]}

Now turn to the next binder.
Quick check: pKd of TOCA1 HR1 domain (residues 330–426), untagged (domain or fragment, Xenopus tropicalis, UniProt Q6GUF4 330-426, looked up, Xenopus tropicalis TOCA1 (transducer of Cdc42-dependent actin assembly protein 1) HR1 domain, residues 330-426, from cDNA NM_001005148, in pGEX-6P-1; 15N- or 13C/15N-labelled in some NMR experiments; also called HR1^TOCA1; TOCA HR1 domain; source: E. coli BL21, purified (glutathione-agarose, 3C protease cleavage, gel filtration); not shown: GST, N-terminal, cleaved) KGPALEDFSHLPPEQRRKRLQQRIDELSRELQKEMDQKDALNKMKDVYEKNPQMGDPSSLHPKIAETTSNIERLRMEIHKNEAWLSEVEGKVSQRSE ? 5.22
